test system: Scedosporium aurantiacum CBS 136046; test: growth inhibition relative to DMSO control (OD600); higher = more antifungal activity, active = 80 or more; extreme values may be limits of the assay; settings: 5 µM; 72 h; 37 °C;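 note: conidia screened in RPMI 1640 medium under 5% CO2, growth read by spectrophotometer, medium with 0.5% DMSO serving as the untreated reference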
PROPERTY MEASURED: growth inhibition (%)
# number only, unit % dropped from output

## Input Any idea what its growth inhibition is? The molecule is `CCc1cc(Nc2cc(=O)n(CCN3CCN(C(=O)c4ccccc4)CC3)c(=O)[nH]2)ccc1C`
## Output 0

## Input Any idea what its growth inhibition is? The molecule is `COc1cc(NCc2ccc3nc(N)nc(N)c3c2C)cc(OC)c1OC`
## Output 0.273

## Input Any idea what its growth inhibition is? The molecule is `NC(=O)c1c(N)sc2c1CCCCC2`
## Output 6.23

## Input Any idea what its growth inhibition is? The molecule is `Fc1ccc(-c2nc(-c3c[nH]c4ccc(Br)cc34)[nH]c2-c2ccc(F)cc2)cc1`
## Output 28.1

## Input Any idea what its growth inhibition is? The molecule is O=c1ccc2ncc(=O)n3c2n1CC3CN1CCC(NCc2cc3c(cn2)OCCC3)CC1 (configuration not stated)
## Output 0

## Input Any idea what its growth inhibition is? The molecule is `Cc1ccn2c(C(=O)NCc3ccccc3)c(C)nc2c1`
## Output 34

## Input Any idea what its growth inhibition is? The molecule is `OB1OCc2c1ccc(Cl)c2F`
## Output 0.00748

## Input Any idea what its growth inhibition is? The molecule is CC(C)=CCC/C(C)=C/CNCCNC1C2CC3CC(C2)CC1C3 (configuration not stated)
## Output 61.4

## Input Any idea what its growth inhibition is? The molecule is `CCc1cc(O)c(Oc2cccnc2N)cc1F`
## Output 12.4

## Input Any idea what its growth inhibition is? The molecule is Nc1cnn(C2OC(CO)C(O)C2O)c(=O)n1 (configuration not stated)
## Output 8.41

## Input Any idea what its growth inhibition is? The molecule is CCc1nc(N)nc(N)c1C#CC(C)c1cc(OC)cc(-c2ccncc2)c1 (configuration not stated)
## Output 48.8

## Input Any idea what its growth inhibition is? The molecule is `C[C@@H](NC(=O)c1ccccc1-c1ccccc1)B(O)O`
## Output 0.688

## Input Any idea what its growth inhibition is? The molecule is CCCCC(CC)CNC(=N)NC(=N)NCCCCCCNC(=N)NC(=N)NCC(CC)CCCC (configuration not stated)
## Output 85

## Input Any idea what its growth inhibition is? The molecule is `CO[C@@]1(NC(=O)Cc2cccs2)C(=O)N2C(C(=O)O)=C(COC(N)=O)CS[C@@H]21`
## Output 20.8

## Input Any idea what its growth inhibition is? The molecule is `O=C(N[C@H](CCS)C(=O)N[C@H](Cc1ccccc1)C(=O)O)c1cc2ccccc2[nH]1`
## Output 23.5

## Input Any idea what its growth inhibition is? The molecule is `CCCCc1ccc(-c2cc(C(=O)O)cc(-c3ccc(Cl)cc3)n2)cc1`
## Output 37.3

## Input Any idea what its growth inhibition is? The molecule is `COc1c(F)c(F)cc2c(=O)c(C(=O)O)cn(C3CC3)c12`
## Output 43.8

## Input Any idea what its growth inhibition is? The molecule is `CN(C)CCNC(=O)c1cccc2cccnc12`
## Output 2.13

## Input Any idea what its growth inhibition is? The molecule is `CNc1nc(=O)[nH]cc1F`
## Output 2.45

## Input Any idea what its growth inhibition is? The molecule is `Cc1nc(N(C)C(=O)Cc2ccc(-c3ccccn3)cc2)sc1S(N)(=O)=O`
## Output 4.79

## Input Any idea what its growth inhibition is? The molecule is `COc1nc2ccc(Br)cc2cc1[C@@H](c1ccccc1)[C@@](O)(CCN(C)C)c1cccc2ccccc12`
## Output 43.6

## Input Any idea what its growth inhibition is? The molecule is CC(N)C12CC3CC(CC(C3)C1)C2 (configuration not stated)
## Output 10.8

## Input Any idea what its growth inhibition is? The molecule is `O=C(c1nc2c(C(F)(F)F)cc(C3CC3)cn2c1Cl)N1CCN([C@H]2CC[C@H](O)CC2)C(=O)C1`
## Output 4.91

## Input Any idea what its growth inhibition is? The molecule is `NC(=O)c1[nH]c2ccc(S(N)(=O)=O)cc2c1-c1ccccc1`
## Output 34.5

## Input Any idea what its growth inhibition is? The molecule is CC(Oc1ccc(Cl)cc1Cl)C(=O)NCc1ccc2c(c1)OCO2 (configuration not stated)
## Output 17.5

## Input Any idea what its growth inhibition is? The molecule is `Nc1nc2c(ncn2COCCO)c(=O)[nH]1`
## Output 11.1

## Input Any idea what its growth inhibition is? The molecule is `COc1cc(Cc2cnc(N)nc2N)cc(OC)c1OC`
## Output 0.169

These measurements were taken from the supplement of paper PMC9897528.
